target: TBK1 (Homo sapiens (Human)); assay: TBK1 low ATP kinase assay (in vitro assay 1); format: biochemical; details: in vitro assay 1, read-out: TBK1 low ATP kinase assay IC50
Sequence (Q9UHD2 whole entry): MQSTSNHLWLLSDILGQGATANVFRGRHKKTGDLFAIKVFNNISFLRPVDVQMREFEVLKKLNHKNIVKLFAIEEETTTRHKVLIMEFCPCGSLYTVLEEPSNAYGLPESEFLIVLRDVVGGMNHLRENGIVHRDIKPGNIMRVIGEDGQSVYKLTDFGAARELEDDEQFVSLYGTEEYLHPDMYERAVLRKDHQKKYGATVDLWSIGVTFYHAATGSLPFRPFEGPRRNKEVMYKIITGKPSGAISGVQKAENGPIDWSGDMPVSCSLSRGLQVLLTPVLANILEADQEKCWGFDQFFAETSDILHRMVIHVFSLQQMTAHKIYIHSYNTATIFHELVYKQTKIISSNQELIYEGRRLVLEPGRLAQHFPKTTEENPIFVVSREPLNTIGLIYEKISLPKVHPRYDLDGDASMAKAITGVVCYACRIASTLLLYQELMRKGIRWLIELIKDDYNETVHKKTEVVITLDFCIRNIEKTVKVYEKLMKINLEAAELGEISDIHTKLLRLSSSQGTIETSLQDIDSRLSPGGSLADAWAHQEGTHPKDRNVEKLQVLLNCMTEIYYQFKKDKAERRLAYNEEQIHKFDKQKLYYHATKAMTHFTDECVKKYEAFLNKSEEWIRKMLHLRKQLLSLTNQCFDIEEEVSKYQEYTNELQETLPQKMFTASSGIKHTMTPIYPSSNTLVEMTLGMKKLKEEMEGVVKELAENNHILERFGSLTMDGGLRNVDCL
pIC50: −log10 of the molar value.
pIC50 vs 8: at or above is label 1, below is label 0.

{"MOLECULE": "CCn1cc(-c2ccc3nc(Nc4cc(CN5CCN(C(=O)C6CC6)CC5)ccn4)[nH]c3c2OCC(C)C)cn1", "CATEGORY LABEL": "label 0"}
{"MOLECULE": "CC(c1ccnc(Nc2nc3ccc(-c4cc(N5CC(C(F)(F)F)C5)ncn4)cc3[nH]2)c1)N1CCN(C(=O)[C@@H]2CC2(F)F)CC1 (single isomer, unassigned)", "CATEGORY LABEL": "label 1"}
{"MOLECULE": "O=C(CC(F)(F)F)N1CCN(Cc2ccnc(Nc3nc4ccc(-c5ccncc5C(F)(F)F)cc4[nH]3)c2)CC1", "CATEGORY LABEL": "label 0"}
{"MOLECULE": "Cc1ncc(-c2ccc3nc(Nc4cc(CN5CCN(C(=O)C6CC6)CC5)ccn4)[nH]c3c2)cn1", "CATEGORY LABEL": "label 0"}
{"MOLECULE": "Cc1cc(-c2ccc3nc(Nc4cc(CN5CCN(C(=O)CC(F)(F)F)CC5)ccn4)[nH]c3c2)nc(C)n1", "CATEGORY LABEL": "label 0"}
{"MOLECULE": "CC(c1ccnc(Nc2nc3ccc(-c4cnn(CC5CC5(C)C)c4)cc3[nH]2)c1)N1CCN(C(=O)CC(F)(F)F)CC1 (single isomer, unassigned)", "CATEGORY LABEL": "label 1"}
{"MOLECULE": "CCOc1c(-c2cnn(CC)c2)ccc2nc(Nc3cc(CN4CCN(C(=O)C5CC5)CC4)ccn3)[nH]c12", "CATEGORY LABEL": "label 0"}
{"MOLECULE": "CC(c1ccnc(Nc2nc3ccc(-c4cc(N5CCOCC5)ncn4)cc3[nH]2)c1)N1CCN(C(=O)C2CC2)CC1 (single isomer, unassigned)", "CATEGORY LABEL": "label 1"}
{"MOLECULE": "CC(c1ccnc(Nc2nc3ccc(-c4cc(C(F)F)ncn4)cc3[nH]2)c1)N1CCN(C(=O)C2CC2)CC1 (single isomer, unassigned)", "CATEGORY LABEL": "label 1"}

====

molecular target: TBK1 (Homo sapiens (Human)); assay: TBK1 low ATP kinase assay (in vitro assay 1); type: biochemical; conditions: in vitro assay 1, read-out: TBK1 low ATP kinase assay IC50
REPORTED ENDPOINT: IC50 (µM)

{"MOLECULE": "COc1c(-c2ccc3nc(Nc4cc(C(C)N5CCN(C(=O)OC(C)(C)C)CC5)ccn4)[nH]c3c2)ncnc1N(C)C (single isomer, unassigned)", "SYSTEM": "TBK1 (Homo sapiens (Human))", "REPORTED ENDPOINT": "IC50", "UNIT ANNOTATION": "µM", "MEASUREMENT": 0.021}
{"MOLECULE": "COc1c(-c2ccc3nc(Nc4cc(C(C)N5CCN(C(=O)C6CC6)CC5)ccn4)[nH]c3c2)ncnc1N1CCCC1 (single isomer, unassigned)", "SYSTEM": "TBK1 (Homo sapiens (Human))", "REPORTED ENDPOINT": "IC50", "UNIT ANNOTATION": "µM", "MEASUREMENT": 0.0013}
{"MOLECULE": "COCc1cc(-c2ccc3nc(Nc4cc(C(C)N5CCN(C(=O)CC(F)(F)F)CC5)ccn4)[nH]c3c2Cl)ncn1 (single isomer, unassigned)", "SYSTEM": "TBK1 (Homo sapiens (Human))", "REPORTED ENDPOINT": "IC50", "UNIT ANNOTATION": "µM", "MEASUREMENT": 0.033}
{"MOLECULE": "COc1cncnc1-c1ccc2nc(Nc3cc(CN4CCN(S(=O)(=O)CCC(F)(F)F)CC4)ccn3)[nH]c2c1", "SYSTEM": "TBK1 (Homo sapiens (Human))", "REPORTED ENDPOINT": "IC50", "UNIT ANNOTATION": "µM", "MEASUREMENT": 0.0406}
{"MOLECULE": "COc1cc(-c2ccc3nc(Nc4cc(CN5CCN(C(=O)C6CC6)CC5)ccn4)[nH]c3c2)c(F)cn1", "SYSTEM": "TBK1 (Homo sapiens (Human))", "REPORTED ENDPOINT": "IC50", "UNIT ANNOTATION": "µM", "MEASUREMENT": 0.198}
{"MOLECULE": "CC(c1ccnc(Nc2nc3ccc(-c4cnn(CC5CC(F)(F)C5)c4)cc3[nH]2)c1)N1CCN(C(=O)CC(F)(F)F)CC1 (single isomer, unassigned)", "SYSTEM": "TBK1 (Homo sapiens (Human))", "REPORTED ENDPOINT": "IC50", "UNIT ANNOTATION": "µM", "MEASUREMENT": 0.0116}
